Values from patent US20240247080A1

Measured EC50 hGLP1R 0.5% hP (CreLuc), listed per entry.
Assayed Target: GLP-1 receptor (human (printed as hGLP1R), UniProt P43220 24-463)
Protocol: cell-based or functional assay
Starred links: 1 amine or outer side, 2 acyl side, 3 side chain; linkers in the order of their positions; H or OH if unused. Non-standard residues stand in square brackets, D forms with d. Groups on a side chain read outwards from the residue. No end group written: not given here. *: point of attachment. C18 diacid = O=C(O)CCCCCCCCCCCCCCCCC(=O)*; γGlu = O=C(O)[C@H](CCC(=O)[*:2])N[*:1]; AEEA = NCCOCCOCC(=O)O; Aib = CC(C)(N)C(=O)O
Outcome Measure: EC50 hGLP1R 0.5% hP (CreLuc) (pM)

>>> assay_value("Y[Aib]EGTFTSDYSI[Aib]LEKQAQ[Aib]AFVQWLIK([AEEA-AEEA-Glu-Glu-Glu-C18 diacid])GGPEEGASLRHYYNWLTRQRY-NH2 (also: TFA salt) [Compound 188]")
150
>>> assay_value("Y[Aib]EGTFTSDYSI[Aib]LEKQAQ[Aib]AFVQWLIK([γGlu-γGlu-γGlu-γGlu-γGlu-γGlu-C18 diacid])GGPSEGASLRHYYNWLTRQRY-NH2 (also: TFA salt) [Compound 252]")
100
